ASSAY REMARKS: PK of compound of Formula (Ia) after single subcutaneous dose of solution formulations in beagle dogs
Type: in vivo
APPLIED CONDITIONS: male, beagle, dog, plasma, sc, 12 mg/kg, 672 h; mean, n = 3 dogs; SC 12 mg/kg; solution U, 500 mg/mL
Method: Formulations containing the compound of Formula (Ia), or a pharmaceutically acceptable salt thereof, were prepared as solutions and optionally administered subcutaneously or intramuscularly to rats, rabbits, and/or dogs. A solution of about 400 mg/mL of the compound of Formula (Ia) having 17.00 w/w % water, 36.40 w/w % PEG 300, 35.20 w/w % of a sodium salt of a compound of Formula (Ia), 5.00 w/w % ethanol, and 6.40 w/w % poloxamer 188 was prepared. […]

MOLECULE	concentration at 672 h
CC(C)(C#Cc1ccc(-c2ccc(Cl)c3c(NS(C)(=O)=O)nn(CC(F)(F)F)c23)c([C@H](Cc2cc(F)cc(F)c2)NC(=O)Cn2nc(C(F)(F)F)c3c2C(F)(F)[C@@H]2C[C@H]32)n1)S(C)(=O)=O [compound of Formula (Ia)]	81.9 nM
